Overview of reported IC50 across a group of compounds:
system: HeLa S3 cells; assay: HeLa Cell Growth Inhibition Activity (HeLa S3, MTT); format: cell-based; conditions: Homo sapiens, 72 hours exposure
Your answer should be a plain number; it is taken to be in ng/mL.

COC(=O)c1c(C(F)(F)F)[nH]c2c(O)cc3c(c12)[C@H](CCl)CN3C(=O)/C=C/c1ccc(/C=C/C(=O)N2C[C@@H](CCl)c3c2cc(O)c2[nH]c(C(F)(F)F)c(C(=O)OC)c32)c2c1OCO2 [Example 5]: 0.00595

In: Report value only: IC50, HeLa S3 cells, COC(=O)c1c(C(F)(F)F)[nH]c2c(O)cc3c(c12)[C@H](CCl)CN3C(=O)/C=C/c1ccc(/C=C/C(=O)N2C[C@@H](CCl)c3c2cc(O)c2[nH]c(C(F)(F)F)c(C(=O)OC)c32)c(OC)c1OC [Example 8]
Out: 0.00158
